Tested on: Kornkäfer (sitophilus granarius L)
Test: whole plant or invertebrate
Type: in vivo
Conditions: amine 1 mg/ml + Ripcord 0,01 mg/ml

[
  {
    "Molecule": "C=CC(C)(CCC=C(C)CCC=C(C)C)N1CCCC1 (centres unmarked)",
    "Target system": "Kornkäfer (sitophilus granarius L)",
    "Synergistischer Faktor bei Ripcord": "3,00"
  },
  {
    "Molecule": "CCOC(=O)C(CC)N1CCCCC1 (centres unmarked)",
    "Target system": "Kornkäfer (sitophilus granarius L)",
    "Synergistischer Faktor bei Ripcord": "1,94"
  },
  {
    "Molecule": "CCCCCCCCCCCCCN1CCCCC1",
    "Target system": "Kornkäfer (sitophilus granarius L)",
    "Synergistischer Faktor bei Ripcord": "3,05"
  },
  {
    "Molecule": "C(CCCN1CCCC1)CCN1CCCC1",
    "Target system": "Kornkäfer (sitophilus granarius L)",
    "Synergistischer Faktor bei Ripcord": "2,52"
  },
  {
    "Molecule": "c1ccc2cc(CN3CCCCC3)ccc2c1",
    "Target system": "Kornkäfer (sitophilus granarius L)",
    "Synergistischer Faktor bei Ripcord": "3,05"
  }
]

====

System: Kornkäfer (sitophilus granarius L)
Experiment: whole plant or invertebrate
Assay type: in vivo
Settings: amine 1 mg/ml mixed 1 : 1 with Ripcord 0,01 mg/ml; 3 h

[
  {
    "Compound": "CCCCCN1CCCC1",
    "Target system": "Kornkäfer (sitophilus granarius L)",
    "Wirksamkeit in % Substanz +Ripcord": "74,8%"
  },
  {
    "Compound": "c1ccc(COCCN2CCOCC2)cc1",
    "Target system": "Kornkäfer (sitophilus granarius L)",
    "Wirksamkeit in % Substanz +Ripcord": "50,8%"
  },
  {
    "Compound": "CCCCCCCCN1CCCC1",
    "Target system": "Kornkäfer (sitophilus granarius L)",
    "Wirksamkeit in % Substanz +Ripcord": "56,0%"
  },
  {
    "Compound": "C=CC(C)(CCC=C(C)C)N1CC1 (stereo not shown)",
    "Target system": "Kornkäfer (sitophilus granarius L)",
    "Wirksamkeit in % Substanz +Ripcord": "97,2%"
  },
  {
    "Compound": "C#CCN1CCCC1",
    "Target system": "Kornkäfer (sitophilus granarius L)",
    "Wirksamkeit in % Substanz +Ripcord": "50,8%"
  },
  {
    "Compound": "OCCN1CCOCC1",
    "Target system": "Kornkäfer (sitophilus granarius L)",
    "Wirksamkeit in % Substanz +Ripcord": "66,8%"
  },
  {
    "Compound": "c1ccc(C(N2CCCCC2)N2CCCCC2)cc1",
    "Target system": "Kornkäfer (sitophilus granarius L)",
    "Wirksamkeit in % Substanz +Ripcord": "40,0%"
  },
  {
    "Compound": "CCCCCCCCCCCCCCCCN1CCCCC1CC (stereo not shown)",
    "Target system": "Kornkäfer (sitophilus granarius L)",
    "Wirksamkeit in % Substanz +Ripcord": "74,8%"
  },
  {
    "Compound": "c1ccc(CCN2CCOCC2)cc1",
    "Target system": "Kornkäfer (sitophilus granarius L)",
    "Wirksamkeit in % Substanz +Ripcord": "86,8%"
  },
  {
    "Compound": "OCCN1CCCC1",
    "Target system": "Kornkäfer (sitophilus granarius L)",
    "Wirksamkeit in % Substanz +Ripcord": "81,2%"
  }
]
